Target: GLP-1R (Homo sapiens, UniProt P43220)
Construct: host or cells: GLP-1R CRE-bla CHO-K1 cells
Sequence (P43220 24-463): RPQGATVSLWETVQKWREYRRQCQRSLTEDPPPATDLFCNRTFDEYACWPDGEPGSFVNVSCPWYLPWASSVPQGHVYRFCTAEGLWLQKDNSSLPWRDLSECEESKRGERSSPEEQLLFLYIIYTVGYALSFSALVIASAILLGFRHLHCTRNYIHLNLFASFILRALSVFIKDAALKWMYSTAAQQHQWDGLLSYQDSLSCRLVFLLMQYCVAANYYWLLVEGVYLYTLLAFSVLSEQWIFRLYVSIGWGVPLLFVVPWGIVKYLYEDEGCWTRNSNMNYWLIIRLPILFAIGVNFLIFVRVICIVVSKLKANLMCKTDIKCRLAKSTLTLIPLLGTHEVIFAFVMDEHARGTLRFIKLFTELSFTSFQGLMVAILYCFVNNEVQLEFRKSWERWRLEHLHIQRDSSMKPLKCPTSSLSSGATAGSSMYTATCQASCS
Sequence (P01275 100-127 partner limits assumed): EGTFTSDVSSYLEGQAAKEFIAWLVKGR
Test: EC20 GLP-1(9-36) PAM cAMP assay: dose response of compound in the presence of fixed concentration of GLP-1(9-36)
Assay type: cell-based
Settings: dose response of compound in presence of fixed concentration of GLP-1(9-36), GLP-1R CRE-bla CHO-K1 cells, read-out: EC20 GLP-1(9-36) PAM EC50
From the text: EC20 GLP-1(9-36) PAM cAMP Assay: Dose Response of Compound in the Presence of Fixed Concentration of GLP-1 (9-36). […]
pEC50: −log10 of the molar value.
# pEC50 values compiled below

COMPOUND	SUBJECT OF TEST	pEC50
CCCCCCCOc1ccc(-c2cnc(-c3ccc(C[C@H](NC(=O)c4ccc(C(C)(C)C)cc4)C(=O)NCC(CC4CCOC4)C(=O)O)cc3)nc2)cc1 (stereo partly drawn)	GLP-1R (Homo sapiens, UniProt P43220)	5.60 to 6.10
CC(C)(C)c1ccc(C(=O)N[C@@H](Cc2ccc(-c3ncc(-c4ccc(C5CCCC5)cc4)cn3)cc2)C(=O)N2CC(C(=O)O)C2)s1	GLP-1R (Homo sapiens, UniProt P43220)	5.60 to 6.10
CCOc1ccc2cc(-c3cnc(-c4ccc(C[C@H](NC(=O)c5ccc(C(C)(C)C)s5)C(=O)N[C@H](C)C(=O)O)cc4)nc3)ccc2c1	GLP-1R (Homo sapiens, UniProt P43220)	5.30 to 5.60
CCSc1ccc(-c2cnc(-c3ccc(C[C@H](NC(=O)c4ccc(C(C)(C)C)s4)C(=O)N[C@H](C)C(=O)O)cc3)nc2)cc1	GLP-1R (Homo sapiens, UniProt P43220)	5.30 to 5.60
CC1(C)CCC(c2ccc(-c3cnc(-c4ccc(C[C@H](NC(=O)c5ccc(C(C)(C)C)s5)C(=O)N5CC(C(=O)O)C5)cc4)nc3)cc2)CC1	GLP-1R (Homo sapiens, UniProt P43220)	> 6.10
CCCCCCCOc1ccc(-c2cnc(-c3ccc(C[C@H](NC(=O)c4ccc(C(C)(C)C)s4)C(=O)NC(C)CO)cc3)nc2)cc1 (stereo partly drawn)	GLP-1R (Homo sapiens, UniProt P43220)	5.00 to 5.30
CCCC(C)COc1ccc(-c2cnc(-c3ccc(C[C@H](NC(=O)c4ccc(C(C)(C)C)cc4)C(=O)NCCC(=O)O)cc3)nc2)cc1 (stereo partly drawn)	GLP-1R (Homo sapiens, UniProt P43220)	5.00 to 5.30
CCCCCC(=O)c1ccc(-c2cnc(-c3ccc(C[C@H](NC(=O)c4ccc(C(C)(C)C)s4)C(=O)N[C@H](C)C(=O)O)cc3)nc2)cc1	GLP-1R (Homo sapiens, UniProt P43220)	> 6.10
CCCCCCCOc1ccc(-c2cnc(-c3ccc(C[C@H](NC(=O)c4ccc(C(C)(C)C)s4)C(=O)NS(=O)(=O)CC(=O)O)cc3)nc2)cc1	GLP-1R (Homo sapiens, UniProt P43220)	5.60 to 6.10
CCCCCCCCOc1ccc(-c2cnc(-c3ccc(C[C@H](NC(=O)c4ccc(C(C)(C)C)s4)C(=O)N[C@H](C)C(=O)O)cc3)nc2)cc1	GLP-1R (Homo sapiens, UniProt P43220)	> 6.10
CCCCCCCOc1ccc(-c2cnc(-c3ccc(CC(NC(=O)c4ccc(C(C)(C)C)s4)C(=O)N[C@@H](CSSC[C@H](N)C(=O)O)C(=O)O)cc3)nc2)cc1 (stereo partly drawn)	GLP-1R (Homo sapiens, UniProt P43220)	5.60 to 6.10
CCCCCCCOc1ccc(-c2cnc(-c3ccc(C[C@H](NC(=O)c4ccc(CC)cc4)C(=O)N[C@H](C)C(=O)O)cc3)nc2)cc1	GLP-1R (Homo sapiens, UniProt P43220)	> 6.10

----------
# pEC50 values compiled below
target: GLP-1R (Homo sapiens); construct: host or cells: GLP-1R CRE-bla CHO-K1 cells; assay: EC20 GLP-1(9-36) PAM cAMP assay: dose response of compound in the presence of fixed concentration of GLP-1(9-36); assay type: cell-based; conditions: dose response of compound in presence of fixed concentration of GLP-1(9-36), GLP-1R CRE-bla CHO-K1 cells, read-out: EC20 GLP-1(9-36) PAM EC50
pEC50: −log10 of the molar value.
OUTCOME MEASURE: pEC50

COMPOUND	OBSERVED
CCCCCCCOc1ccc(-c2cnc(-c3ccc(C[C@H](NC(=O)c4ccc(C(C)(C)C)s4)C(=O)N4CC(OC)(C(=O)O)C4)cc3)nc2)cc1 [Compound 873]	> 6.10
CCCc1ccc(C(=O)N[C@@H](Cc2ccc(-c3ncc(-c4ccc([C@H]5CC[C@H](CC)CC5)cc4)cn3)cc2)C(=O)N2CC(C(=O)O)C2)cc1 [Compound 1156]	> 6.10
CCCCCCCOc1ccc(-c2cnc(-c3ccc(C[C@H](NC(=O)c4ccc(C(C)(C)C)s4)C(=O)N4CCC[C@H]4C(=O)N4CCCC4C(=O)O)cc3)nc2)cc1 (some centres unmarked) [Compound 497]	> 6.10
CCCCCCCOc1ccc(-c2cnc(-c3ccc(C[C@H](NC(=O)c4ccc(OCCC)cc4)C(=O)N[C@H](C)C(=O)O)cc3)nc2)cc1 [Compound 982]	5.00 to 5.30
CCCCCCCOc1ccc(-c2cnc(-c3ccc(C[C@H](NC(=O)c4ccc(CC(C)C)cc4)C(=O)N4CC[C@H](C(=O)O)C4)cc3)nc2)cc1 [Compound 851]	5.30 to 5.60
CCCCCCCOc1ccc(-c2cnc(-c3ccc(C[C@H](NC(=O)c4ccc(C(F)(F)F)s4)C(=O)N[C@H](C)C(=O)O)cc3)nc2)cc1 [Compound 815]	> 6.10
CCCCCOc1ccc(-c2cnc(-c3ccc(C[C@H](NC(=O)c4ccc(C(C)(C)C)s4)C(=O)N4CC(C(=O)O)C4)cc3)nc2)cc1 [Compound 787]	5.60 to 6.10
CCCCCCCOc1ccc(-c2cnc(-c3ccc(C[C@H](NC(=O)c4ccc(C(C)(C)C)s4)C(=O)N[C@@H](CC(=O)O)C(=O)N4CCNCC4)cc3)nc2)cc1 [Compound 534]	5.60 to 6.10
CCCCCCCOc1ccc(-c2cnc(-c3ccc(C[C@H](NC(=O)c4ccc(C(C)(C)C)s4)C(=O)N[C@@H](Cc4cccnc4)C(=O)O)cc3)nc2)cc1 [Compound 617]	> 6.10
CCCCCCCOc1ccc(-c2cnc(-c3ccc(C[C@H](NC(=O)c4ccc(C(C)(C)C)s4)C(=O)N[C@@H](Cc4cccnc4)C(=O)O)cc3)nc2)cc1 [Compound 616]	5.60 to 6.10
CC(C)(C)CCCOc1ccc(-c2cnc(-c3ccc(C[C@H](NC(=O)c4ccc(C(C)(C)C)s4)C(=O)NC(C(=O)O)C(O)c4ccccc4)cc3)nc2)cc1 (some centres unmarked) [Compound 937]	5.60 to 6.10
CCCCCCCOc1ccc(-c2cnc(-c3ccc(C[C@H](NC(=O)c4ccc(C(C)(C)C)nc4)C(=O)N4CC(C(=O)O)C4)cc3)nc2)cc1 [Compound 1117]	5.60 to 6.10
CCCCCCCOc1ccc(-c2cnc(-c3ccc(C[C@H](NC(=O)c4ccc(C(C)(C)C)cc4)C(=O)N4CC(C(=O)O)CC4C)cc3)nc2)cc1 (some centres unmarked) [Compound 893]	5.30 to 5.60
CCCCCCCOc1ccc(-c2cnc(-c3ccc(C[C@H](NC(=O)c4ccc(O)c(F)c4)C(=O)N[C@H](C)C(=O)O)cc3)nc2)cc1 [Compound 983]	5.00 to 5.30
Cc1cc(-c2ccccc2)ccc1-c1cnc(-c2ccc(C[C@H](NC(=O)c3ccc(C(C)(C)C)s3)C(=O)N[C@H](C)C(=O)O)cc2)nc1 [Compound 1131]	5.60 to 6.10
CCCCCCc1nnc(-c2cnc(-c3ccc(C[C@H](NC(=O)c4ccc(C(C)(C)C)cc4)C(=O)O)cc3)nc2)s1 [Compound 397]	5.30 to 5.60
CC(C)(C)c1ccc(C(=O)N[C@@H](Cc2ccc(-c3ncc(-c4ccc(C(C)(C)C)cc4)cn3)cc2)C(=O)NCCC(=O)O)cc1 [Compound 675]	5.00 to 5.30
CCCCCCCOc1c(C)cc(-c2cnc(-c3ccc(C[C@H](NC(=O)c4ccc(C(C)(C)C)cc4)C(=O)NCCC(=O)O)cc3)nc2)cc1C [Compound 705]	5.60 to 6.10
CCCCCCCOc1ccc(-c2cnc(-c3ccc(C[C@H](NC(=O)c4ccc(CC(C)C)cc4)C(=O)N4CC(C(=O)O)C4)cc3)nc2)cc1 [Compound 1116]	5.60 to 6.10
C[C@@H](NC(=O)[C@H](Cc1ccc(-c2ncc(-c3cc(O)cc(OC(F)(F)F)c3)cn2)cc1)NC(=O)c1ccc(C(C)(C)C)s1)C(=O)O [Compound 1020]	5.00 to 5.30
CCCCCCCOc1ccc(-c2cnc(-c3ccc(C[C@H](NC(=O)c4ccc(CCC)s4)C(=O)NC(C(=O)O)C(O)c4ccccc4)cc3)nc2)cc1 (some centres unmarked) [Compound 959]	5.60 to 6.10
CCCCCCCOc1ccc(-c2cnc(-c3ccc(C[C@H](NC(=O)c4ccc(C(C)(C)C)s4)C(=O)N4CC(C(=O)O)C4)cc3)nc2)nc1 [Compound 1066]	5.60 to 6.10
CCCCCCCOc1ccc(-c2cnc(-c3ccc(C[C@H](NC(=O)c4ccc(C(C)(C)C)s4)C(=O)NC(C(=O)O)C(O)c4ccc(Cl)c(Cl)c4)cc3)nc2)cc1 (some centres unmarked) [Compound 905]	5.00 to 5.30
